The values you see were collected from patent US20110306597A1.

- SYSTEM_TESTED: human recombinant H-PGDS (Homo sapiens)
- PROCEDURE_SUMMARY: Fluorescence Intensity h-PGDS TBA Enzyme Assay
- Assay type: biochemical
- TEST_CONTEXT: 1:175,000 human recombinant H-PGDS, highest inhibitor concentration typically 1 μM
One threshold, 60 nM, splits the recorded IC50 values: lower ones are satisfied, equal or higher ones are not satisfied.

> print(dat)
                                    compound  qualitative.label
 1  O=C(NCCOCc1nc2ccccc2[nH]1)c1ccc(-c2cccc(F)c2)nc1 [Example 76]          satisfied
 2  O=C(NCc1cccc(F)c1)c1ccc(-c2cccc(F)c2)nc1 [Example 405]      not satisfied
 3  O=C(NCc1ccc(Cl)cc1)c1ccc(-c2ccc(F)cc2)nc1 [Example 462]      not satisfied
 4  COc1ccc(C(CNC(=O)c2ccc(-c3ccccc3)nc2)N2CCOCC2)cc1 (centres unmarked) [Example 400]      not satisfied
 5  COc1cccn(CCNC(=O)c2ccc(-c3cccc(F)c3)nc2)c1=O [Example 48]          satisfied
 6  CCn1c(CCNC(=O)c2ccc(-c3ccccc3)nc2)nc2cc(C(=O)NCCOC)ccc21 [Example 391]          satisfied
 7  O=C(NCc1coc(-c2ccccc2)n1)c1ccc(-c2cccc(F)c2)nc1 [Example 152]          satisfied
 8  CCCCN1CC(CNC(=O)c2ccc(-c3cccc(F)c3)nc2)OCC1=O (centres unmarked) [Example 70]          satisfied
 9  O=C(NC1CCCCNC1=O)c1ccc(-c2cccc(F)c2)nc1 (centres unmarked) [Example 136]          satisfied
10  C=CCNC(=O)c1ccc(-c2cccc(F)c2)nc1 [Example 135, N-Allyl-6-(3-fluorophenyl)nicotinamide]          satisfied
11  CC(C)CNC(=O)c1ccc(-c2ccccc2)nc1 [Example 378, N-Isobutyl-6-phenylnicotinamide]          satisfied
12  CCOC(=O)C(CNC(=O)c1ccc(-c2cccc(F)c2)nc1)c1c(F)cccc1F (centres unmarked) [Example 163]      not satisfied
13  Cc1cccc(-c2ccc(C(=O)NCCc3cccs3)cn2)c1 [Example 321]      not satisfied
14  CC(C)(C)[C@@H](CO)NC(=O)c1ccc(-c2cccc(F)c2)nc1 [Example 539]      not satisfied
15  Cc1cccc(-c2ccc(C(=O)NCc3ccccc3)cn2)c1 [Example 310, N-Benzyl-6-(3-methylphenyl)nicotinamide]          satisfied
16  CN1CCc2nc(N3CCC(CNC(=O)c4ccc(-c5cccc(F)c5)nc4)CC3)ncc2C1 [Example 10]          satisfied

====

- SYSTEM_TESTED: human recombinant H-PGDS (Homo sapiens)
- PROCEDURE_SUMMARY: Fluorescence Intensity h-PGDS TBA Enzyme Assay
- Type: biochemical
- TEST_CONTEXT: 1:175,000 human recombinant H-PGDS, highest inhibitor concentration typically 1 μM
pIC50: −log10 of the molar value.
PARAMETER_MEASURED: pIC50

> print(dat)
                                   compound  meas.value
1  CNS(=O)(=O)c1ccc(CNC(=O)c2ccc(-c3cccc(OC)c3)nc2)cc1        6.82
2  O=C(NCc1ccccc1)c1ccc(-c2ccc(F)cc2)nc1 [Example 499, N-Benzyl-6-(4-fluorophenyl)nicotinamide]        6.49
3  CN1CCC2(CC1)COC(CNC(=O)c1ccc(-c3cccc(F)c3)nc1)C2 (stereo not shown)        7.11
4  CN(C)CC(C)(C)CNC(=O)c1ccc(-c2cccc(F)c2)nc1        6.76

====

- SYSTEM_TESTED: human recombinant H-PGDS (Homo sapiens, UniProt O60760)
- Sequence (O60760 whole entry): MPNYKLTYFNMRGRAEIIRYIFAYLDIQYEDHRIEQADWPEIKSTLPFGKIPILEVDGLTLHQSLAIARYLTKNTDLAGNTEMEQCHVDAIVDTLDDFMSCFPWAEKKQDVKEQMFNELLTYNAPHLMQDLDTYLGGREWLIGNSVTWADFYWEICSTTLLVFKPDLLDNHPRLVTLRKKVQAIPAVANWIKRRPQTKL
- PROCEDURE_SUMMARY: Fluorescence Intensity h-PGDS TBA Enzyme Assay
- Type: biochemical
- TEST_CONTEXT: 1:175,000 human recombinant H-PGDS, highest inhibitor concentration typically 1 μM
In this section, each of the compounds is paired with its reported IC50.
PARAMETER_MEASURED: IC50 (nM)

> print(dat)
                                   compound  meas.value
1  O=C(NCc1ccc(Br)cc1)c1ccc(-c2ccccc2)nc1 [Example 513, N-(4-Bromobenzyl)-6-phenylnicotinamide]         8.9
2  O=C(NCCc1nnc(C2CC2)[nH]1)c1ccc(-c2cccc(F)c2)nc1        9.06
3  O=C(NCC1(O)CCSCC1)c1ccc(-c2cccc(F)c2)nc1          39
4     COC(=O)CCNC(=O)c1ccc(-c2ccc(F)cc2)nc1         758

====

Listed compounds paired with reported pIC50
- SYSTEM_TESTED: human recombinant H-PGDS (Homo sapiens, UniProt O60760)
- PROCEDURE_SUMMARY: Fluorescence Intensity h-PGDS TBA Enzyme Assay
- Format: biochemical
- TEST_CONTEXT: 1:175,000 human recombinant H-PGDS, highest inhibitor concentration typically 1 μM
pIC50: −log10 of the molar value.
PARAMETER_MEASURED: pIC50

> print(dat)
                                    compound                             system.tested  parameter.measured  sign.qualifier  meas.value
 1  CC(C)[C@H](N)C(=O)NC(=O)c1ccc(-c2ccc(F)cc2)nc1 [Example 501]  human recombinant H-PGDS (Homo sapiens, UniProt O60760)               pIC50               ≤        6.00
 2  CC(NC(=O)c1ccc(-c2ccc(F)cc2)nc1)c1ccncn1 (stereo not shown) [Example 502]  human recombinant H-PGDS (Homo sapiens, UniProt O60760)               pIC50               ≤        6.00
 3  COC(=O)CCNC(=O)c1ccc(-c2cccc(F)c2)nc1 [Example 187]  human recombinant H-PGDS (Homo sapiens, UniProt O60760)               pIC50               =        7.84
 4  COC(=O)CCNC(=O)c1ccc(-c2cccc(OC)c2)nc1 [Example 335]  human recombinant H-PGDS (Homo sapiens, UniProt O60760)               pIC50               =        6.45
 5  Cc1ccc2nc(CCNC(=O)c3ccc(-c4cccc(F)c4)nc3)cn2c1 [Example 1]  human recombinant H-PGDS (Homo sapiens, UniProt O60760)               pIC50               =        8.45
 6  Cc1cccc(-c2ccc(C(=O)NCC(=O)N(C)C)cn2)c1 [Example 244]  human recombinant H-PGDS (Homo sapiens, UniProt O60760)               pIC50               =        6.64
 7  COc1cc(F)cc(-c2ccc(C(=O)NCCC3CCCCO3)cn2)c1 (stereo not shown) [Example 560]  human recombinant H-PGDS (Homo sapiens, UniProt O60760)               pIC50               =        6.89
 8  COC(=O)CCNC(=O)c1ccc(-c2cccc(C)c2)nc1 [Example 223]  human recombinant H-PGDS (Homo sapiens, UniProt O60760)               pIC50               =        7.36
 9  COc1cccc(-c2ccc(C(=O)NCCc3cccs3)cn2)c1 [Example 302]  human recombinant H-PGDS (Homo sapiens, UniProt O60760)               pIC50               =        6.75
10  Cc1cc(C)nc(CCNC(=O)c2ccc(-c3cccc(F)c3)nc2)n1 [Example 143]  human recombinant H-PGDS (Homo sapiens, UniProt O60760)               pIC50               =        7.96
11  O=C(NCCSCCO)c1ccc(-c2cccc(F)c2)nc1 [Example 440]  human recombinant H-PGDS (Homo sapiens, UniProt O60760)               pIC50               =        7.84
12  Cc1ccccc1CNC(=O)c1ccc(-c2cc(F)cc(F)c2)nc1 [Example 541]  human recombinant H-PGDS (Homo sapiens, UniProt O60760)               pIC50               =        7.77
13  COC(=O)[C@H](C)NC(=O)c1ccc(-c2cccc(F)c2)nc1 [Example 174]  human recombinant H-PGDS (Homo sapiens, UniProt O60760)               pIC50               =        6.22
14  COC(=O)CNC(=O)[C@H](C)NC(=O)c1ccc(-c2ccc(F)cc2)nc1 [Example 263]  human recombinant H-PGDS (Homo sapiens, UniProt O60760)               pIC50               =        6.08
15  CCc1nccn1CCCNC(=O)c1ccc(-c2cccc(F)c2)nc1 [Example 86]  human recombinant H-PGDS (Homo sapiens, UniProt O60760)               pIC50               =        7.83
16  COC(=O)[C@H](Cc1ccc(Cl)cc1)NC(=O)c1ccc(-c2cccc(OC)c2)nc1 [Example 306]  human recombinant H-PGDS (Homo sapiens, UniProt O60760)               pIC50               =        6.41
17  COc1ccc(OCCNC(=O)c2ccc(-c3cccc(F)c3)nc2)cc1 [Example 434]  human recombinant H-PGDS (Homo sapiens, UniProt O60760)               pIC50               =        7.00
18  CCOC(=O)CC(NC(=O)c1ccc(-c2cccc(F)c2)nc1)c1ccccc1 (stereo not shown) [Example 406]  human recombinant H-PGDS (Homo sapiens, UniProt O60760)               pIC50               =        7.00
19  O=C(NCCc1ccncc1)c1ccc(-c2cccc(F)c2)nc1 [Example 185]  human recombinant H-PGDS (Homo sapiens, UniProt O60760)               pIC50               =        8.05
